- System: RPMI-8226
- methodNotes: NCI tumour cell line growth inhibition, 48 h
The source made the active and inactive calls. Rule as the data show it: active = GI50 up to about 1.1 µM and inactive = higher.
reportedMetric: GI50

Example results:
# compound, GI50
data = [
    ("O=C(c1ccccc1)c1ccc2[nH]c(-c3c(Cl)c(Cl)c(Cl)c(Cl)c3C(=O)N/N=C/c3ccc(Cl)cc3)nc2c1", "19.3 µM (inactive)"),
    ("C/C(=N\\NC(=O)c1ccccc1O)C1=CNc2ccccc2S1", "4.9 µM (inactive)"),
    ("CC1=NN(C(=O)CC(=O)NC(=O)/C=C\\c2ccccc2)C(=O)C1/N=N/c1ccc([N+](=O)[O-])cc1 (stereo not given)", "85.5 µM (inactive)"),
]

The compound identified as CC(=O)/C(=C/NC(=S)c1cccnc1)C(=O)Nc1ccccc1C registered its GI50 at > 100 µM (inactive)

The compound identified as C[C@H](C(=O)O)C(=O)NC(=O)N(Cc1ccccc1)N=O registered its GI50 at > 100 µM (inactive)

----------
- Test system: HCC 2998
- methodNotes: NCI tumour cell line growth inhibition, 48 h
Activity calls are given as the source filed them. No stated cut-off is given here; in the data, active = GI50 up to about 1.1 µM and inactive = higher.
reportedMetric: GI50

Example results:
# compound, target, reportedMetric, result
measured = [
    ("O=C(O)c1cc(CC2Cc3cc4c(cc3C2=O)CCC4)cc2c1CCC2 (stereo not given)", "HCC 2998", "GI50", "> 100 µM (inactive)"),
    ("COC(=O)c1cc2cc3c(c(O)c2c(=O)o1)O[C@@]1(Oc2c(O)c4c(c(O)c2[C@H]1OC1CC(OC)C(O)C(C)O1)C(=O)C=C(OC)C4=O)[C@H](O)C3 (stereo not given in full)", "HCC 2998", "GI50", "1.2 µM (inactive)"),
    ("[N-]=[N+]=NC(c1cn(C2CC(O)C(CO)O2)c(=O)[nH]c1=O)C(I)I (stereo not given)", "HCC 2998", "GI50", "> 100 µM (inactive)"),
]

The compound identified as c1cc(CSSCc2ccncc2)ccn1 registered its GI50 at 22.9 µM (inactive)

The compound identified as O=C(c1ccc(Cl)cc1)c1cnc(Nc2ccccc2Cl)s1 registered its GI50 at 29 µM (inactive)

----------
- System: HOP-62
- methodNotes: NCI tumour cell line growth inhibition, 48 h
Where a name gives a salt, the structure may show the parent alone. Active and inactive are the calls of the source. Cut-off read from the data, not from the text of the source: active = GI50 up to about 1.1 µM and inactive = higher.
Parameter call: string, one of active, inactive

Answered examples (2):
# molecule, target, labelValue
rows = [
    ("CC(=O)c1cccc2c1CC1(C2)Cc2ccc3c(c2C1=O)CCC3 (stereo not drawn)", "HOP-62", "inactive"),
    ("CC(c1ccccc1)N1CC(C)(c2ccccc2)N(O)C(c2ccccc2)C1C (stereo not drawn)", "HOP-62", "inactive"),
]

Now for another entry.
Query: Hi team, can someone confirm the assay call for C=C1C[C@@H]2CC[C@@]34C[C@H]5O[C@H]6[C@@H](O3)[C@H]3O[C@H](CC[C@@H]3O[C@H]6[C@H]5O4)CC(=O)C[C@@H]3[C@@H](OC)[C@@H](C[C@H](O)CN)O[C@H]3C[C@H]3O[C@@H](CC[C@@H]1O2)C[C@@H](C)C3=C [ERIBULIN MESYLATE] ?
Reply: active

----------
- System: NCI-H522
- methodNotes: NCI tumour cell line growth inhibition, 48 h
Calls of active or inactive are those of the source. Cut-off read from the data, not from the text of the source: active = GI50 up to about 1.1 µM and inactive = higher.
Parameter call: string, one of class 1 for active, class 0 for inactive

# molecule, labelValue
rows = [
    ("NC(=O)N/N=C1/c2ccccc2-n2nccc21", "class 0"),
    ("CCOc1cc2oc(C)cc(=O)c2c(OC)c1/C=N/c1ccc(Cn2c(C)nc3ccccc32)cc1", "class 0"),
    ("COc1cc(C2C3=C(COC3=O)Oc3cc4c(cc32)OCO4)cc(OC)c1O (stereo not drawn)", "class 1"),
    ("O=[N+]([O-])c1cccc2nc3ccccc3c(NCCC[N+]3([O-])CCOCC3)c12", "class 1"),
    ("O=c1[nH]nc(-c2cccc([N+](=O)[O-])c2)[nH]1", "class 0"),
    ("CNC1C(=O)C(C)C(O)(C(CC(C)C(O)/C=C/C=C/CNC(=O)C(C)(C)C(O)\\C(C)=C/C=C\\C=C\\Cc2cnc(C)o2)OC)C12C(=O)OC2C.CNC1C(=O)C(C)C(O)(C(CC(C)C(O)/C=C/C=C/CNC(=O)C(C)(C)C(O)\\C(C)=C/C=C\\C=C\\Cc2cnc(C)o2)OC)C12C(=O)OC2COC (stereo not drawn)", "class 1"),
    ("COC(=O)CCC1CCc2c(OC)ccc(OC)c2C1=O (stereo not drawn)", "class 0"),
    ("Fc1ccccc1/N=c1\\oc2ccc(Br)cc2cc1-c1nc2ccccc2[nH]1", "class 0"),
    ("c1ccc(-c2sc(-c3ccccc3)c3c2C2CCC3C2)cc1", "class 0"),
    ("CCCCCn1cnc2c1S(=O)(=O)N(C)C(NC(=O)c1ccccc1)=N2", "class 0"),
]

Query: Hi team, can someone confirm the assay call for CC(=O)c1cccc(NC(=O)C(=O)NNc2nnc(S)n2N)c1 ?
Reply: class 0

Query: Hi team, can someone confirm the assay call for CC(C)CC(N)C(=O)NC(C(=O)NC(CCCNC(=N)N)C(=O)NC(CS)C(=O)NC1CSCC(C(=O)NC(Cc2ccccc2)C(=O)NC(C(=O)NC(CCCNC(=N)N)C(=O)O)C(C)C)NC(=O)C2CCCN2C(=O)C(CCCCN)NC(=O)C2CCCN2C(=O)C2CCCN2C(=O)C(Cc2ccc(O)cc2)NC(=O)C(CO)NC(=O)C(CCCCN)NC(=O)C(C(C)O)NC(=O)C(Cc2c[nH]c3ccccc23)NC1=O)C(C)C (stereo not drawn) ?
Reply: class 0

Query: Hi team, can someone confirm the assay call for CCN1CCCCC(=N\O)/C(=N/O)CCCC1 ?
Reply: class 0

Query: Hi team, can someone confirm the assay call for O=C(CC(C(=O)c1ccco1)c1cccs1)c1cccs1 (stereo not drawn) ?
Reply: class 0

Query: Hi team, can someone confirm the assay call for [N-]=[N+]=NC1C2CC3CC(C2)CC1C3 (stereo not drawn) ?
Reply: class 0

Query: Hi team, can someone confirm the assay call for c1cc(CSSCc2ccncc2)ccn1 ?
Reply: class 0

Query: Hi team, can someone confirm the assay call for Cc1nn(-c2ccccc2)c2nc(S)cnc12 ?
Reply: class 0

Query: Hi team, can someone confirm the assay call for O=C(ON=c1c2ccccc2ccc2ccccc12)c1ccccc1 ?
Reply: class 0
